Field: activity. Provide a value for each of the compounds that follow.
procedure text: caspase-8 TRAIL sensitization, hit retest, confirmation, cell-based, NB7+caspase-8, with/without TRAIL, luminescence panel (AID 651596)
test parameters: NB7 neuroblastoma + caspase-8, without TRAIL, luminescence viability, without TRAIL, mean of runs, at 10 µM
Field format: number, assumed %, no unit text.

Please report the recorded activity for CCOC(=O)c1c(CSC(=N)N)n(-c2ccc(C)cc2)c2cc(Br)c(OC(C)=O)cc12 .
81.3

For the compound O=C(Nc1ccc2c(c1)OCCO2)c1ccc(Cl)cc1Cl , what activity is on record?
66.6

activity lookup needed for O=C(CC1SC(=O)N(Cc2cccc3ccccc23)C1=O)Nc1nccs1 (stereo unspecified) , thanks.
74.3

What value of activity has been recorded for this entry: Cc1ccc(CSc2nc3ncccc3[nH]2)cc1
68.2

Tell me the measured activity of N#Cc1c(/N=C/c2cccs2)sc2c1CCCCC2 , please.
35.4

I'd like to know its activity. The compound in question is Cc1ccnc(NC(=O)c2sc3ccccc3c2Cl)c1
90.8

###

procedure text: inhibition of Brca1/Bard1 split-luciferase complementation, confirmation, counter-screen for Mdm2/MdmX interaction inhibitor project, luminescence, single concentration (AID 504668)
test parameters: Brca1/Bard1 bimolecular luciferase complementation counterscreen, at 8 µM, stronger effect = higher value
Would you mind telling me the reported inhibition of each entry?
Please give a number only; it is taken to be in %.

Give the measured inhibition of O=C(Nc1nc(-c2ccccn2)cs1)c1ccc(Cl)s1 .
24.4

Which inhibition value is on record for S=C(NNc1ccc2ccccc2c1)NC1CCCCC1 ?
34.4

Query: inhibition; subject: Cc1conc1NC(c1cccs1)c1ccc2cccnc2c1O (stereo unspecified)
31.8

So what does the record say about inhibition for O=C(O)c1cccc(COc2ccc3c(c2)CCC3)c1 ?
24.1

# inhibition lookup, item COc1ccc(C)cc1NC(=O)c1ccccc1NS(=O)(=O)c1ccc(Cl)s1
32.4

State the recorded inhibition for this entry: CC(=O)c1ccc(NC(=O)c2cc(CC(C)C)nc3ccccc23)cc1
33.6

Need inhibition of COc1ccc(-c2oc3ncnc(NCCCN(C)C)c3c2-c2ccc(OC)cc2)cc1 , thanks.
28.6

If you can, please state the reported inhibition value of CCOC(=O)COc1ccc(/C=C/[N+](=O)[O-])c(OCC(=O)OCC)c1 .
23.7

Which inhibition reading was recorded for the molecule Cc1cc(C(=O)CCl)c(C)n1CCc1ccc(Cl)cc1 ?
30.7

Which inhibition value is on record for Cc1cccc(NC(=O)Nc2cccc(Oc3c(F)c(F)c(F)c(F)c3F)c2)c1 ?
32.5

Fill blank: measured inhibition of the molecule Oc1ccc2ccccc2c1N=Nc1ccccn1 is ____.
28

###

Give inhibition for every item shown.
tested on: PEG-3 (UniProt Q6IN02)
Sequence (Q6IN02 whole entry, looked up): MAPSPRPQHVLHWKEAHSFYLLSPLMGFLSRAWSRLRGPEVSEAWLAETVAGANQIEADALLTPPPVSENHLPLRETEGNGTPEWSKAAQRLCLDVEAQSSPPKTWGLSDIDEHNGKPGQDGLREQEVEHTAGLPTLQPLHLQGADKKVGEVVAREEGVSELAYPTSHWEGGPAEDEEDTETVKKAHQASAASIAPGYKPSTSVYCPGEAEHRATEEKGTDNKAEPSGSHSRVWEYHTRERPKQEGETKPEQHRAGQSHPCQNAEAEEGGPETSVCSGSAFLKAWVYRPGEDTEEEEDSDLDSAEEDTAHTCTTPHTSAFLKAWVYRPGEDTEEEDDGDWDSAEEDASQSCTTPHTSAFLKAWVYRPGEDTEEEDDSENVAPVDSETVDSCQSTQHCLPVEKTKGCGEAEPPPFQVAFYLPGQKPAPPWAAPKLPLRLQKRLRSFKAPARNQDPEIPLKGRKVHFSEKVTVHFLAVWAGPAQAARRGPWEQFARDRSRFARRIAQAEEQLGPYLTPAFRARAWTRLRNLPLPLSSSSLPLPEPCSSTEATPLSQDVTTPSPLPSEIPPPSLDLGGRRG
procedure text: Peg3 promoter luciferase inhibitors, potency, dose response, cell-based, HeLa, CREF/GAPDH counter-screen panel (AID 624167)
test parameters: CREF/GAPDH counter-screens; HeLa PEG-Prom luciferase reporter, overnight, run 1, dose range 1, at 100 µM (top of the series) unless noted
Please respond with the number in % and leave the unit unwritten.

Form field: reported inhibition of Cc1ccc(C(=O)N2CCN(c3ccc([N+](=O)[O-])c(NCc4cccnc4)c3)CC2)cc1
48.8

Sample CCCCCCSc1cc(-c2nc3ccc(C)cn3c2NCCCC)ccc1OC — what was its inhibition?
98.7

Which inhibition value belongs to CCCc1ccc(C(=O)O/N=C(\N)c2ccccn2)cc1 ?
99.7

// returns reported inhibition for input CCOc1ccc(NC(=O)c2ccccn2)cc1
88.8

Which inhibition value belongs to Cc1ccccc1-c1nc(-c2ccccn2)no1 ?
96.7

# inhibition lookup, item NC(=O)c1nsc(C(=O)N(c2ccccc2F)C(C(=O)NCc2ccccc2)c2ccc(O)cc2)c1N (stereo unspecified)
98.6

// lookup inhibition for O=C(N/N=C/c1sc(N2CCOCC2)nc1-c1ccccc1)c1cccc(S(=O)(=O)N2CCCC2)c1
63.5

Would you kindly share the measured inhibition for O=C(CCl)Nc1cccc(-c2cnc3ccccc3n2)c1 ?
101

// returns reported inhibition for input O/N=C(\c1ccc(Cl)cc1Cl)c1ncc(C(F)(F)F)cc1Cl
86

Request the reported inhibition associated with Cc1cccc(CN2C(=O)/C(=C\c3ccc(C(=O)NCCN4CCOCC4)cc3)Sc3ccccc32)c1
102

# query: inhibition of entry COc1cc(C(=O)/C=C/c2cccnc2)c([N+](=O)[O-])cc1OC
102

###

procedure text: Apaf-1 inhibitors, single-dose retest, confirmation, biochemical, fluorescence, DEVD-Rh110, 20 µM (AID 504614);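 further: plate controls were DMSO wells for no effect and DEVD-CHO caspase inhibitor control wells for full effect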
test parameters: reconstituted apoptosome, caspase-3 DEVD-Rh110 fluorescence; at 20 µM
The list shows a part of the results. Activity calls are given as the source filed them.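 The calls were made as follows: active = mean inhibition of at least 40% at 20 µM; inactive = the rest.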
Tick one outcome: active, inactive

Recorded test call requested for COc1ccccc1C1C(C#N)=C(N)Oc2c1c(-c1ccccc1)nn2-c1ccccc1 (stereo not given)
inactive

Hey, what did the test say about CCC(=O)Nc1c(S(=O)(=O)c2ccccc2)c2nc3ccccc3nc2n1Cc1ccccc1 ?
inactive

Please state the recorded outcome for this compound: Cc1ccc2c(c1)C1CN(C)CCC1N2S(=O)(=O)c1ccc(Oc2ccc([N+](=O)[O-])cc2)cc1 (stereo not given)
inactive

How was CN1CCN(CCCNC(=O)c2ccc(/C=C3\Oc4ccccc4N(Cc4ccc(Cl)cc4)C3=O)cc2)CC1 classified in this test?
inactive

Test call, this compound: c1ccc(C[C@H]2CNCCN2CCC23CC4CC(CC(C4)C2)C3)cc1
inactive

Hello, I am checking results. What call was entered for CCC(C)(C)c1ccc(OCC(=O)N(C)C)c(C(C)(C)CC)c1 ?
inactive

Could you please tell me the result logged for O=C(CCNS(=O)(=O)c1ccccc1)NCCSc1ccc(Br)cc1 in this assay?
active

State the result this test recorded for O=S(=O)(Nc1ccc(O)c2ccccc12)c1ccc(OC(F)(F)F)cc1 .
inactive

Would you mind telling me which call this test gave CC1=NN(c2ccc(Cl)c(C(=O)O)c2)C(=O)/C1=C/c1ccc(-c2ccccc2[N+](=O)[O-])o1 ?
inactive

# fetch the recorded call for CCN1C(=O)c2cccc3c(N)ccc1c23 here
active

###

procedure text: inhibition of Brca1/Bard1 split-luciferase complementation, confirmation, counter-screen for Mdm2/MdmX interaction inhibitor project, luminescence, single concentration (AID 504668)
test parameters: Brca1/Bard1 bimolecular luciferase complementation counterscreen, at 8 µM, stronger effect = higher value
parameter measured: inhibition (%)
Report as a plain number; the unit % is understood.

Please give the measured inhibition for this molecule: O=C(c1ccc(S(=O)(=O)c2ccccc2Cl)c([N+](=O)[O-])c1)N1CCN(Cc2ccccc2)CC1
29.6

Sample CCN(CC)C(=O)C1CCCc2c1[nH]c1ccc(Cl)cc21 (configuration not stated) — what was its inhibition?
34.6

Requested read-out: inhibition. Entry: COc1ccc2cc(C(=O)N/N=C/c3sc4ccccc4c3O)ccc2c1
32.4

So what does the record say about inhibition for Cc1cccc(NC(=O)[C@H](Cc2c[nH]c3ccccc23)NC(=O)[C@@H]2Cc3ccccc3CN2)c1 ?
26.6

# inhibition lookup, item COc1ccc(/C=C2\SC(=S)N(CCC(=O)NCCc3ccc(O)cc3)C2=O)cc1
27.4

Returns the measured inhibition for the input molecule. Input: CCOc1ccccc1CNC(=O)c1cc2oc3ccccc3c2n1C
26.3

Sample c1ccc(-c2noc(-c3ccc4ccccc4c3)n2)nc1 — what was its inhibition?
27

For the molecule shown here, Cc1ccc(-c2cnc(C3CC3)o2)cc1S(=O)(=O)Nc1ccccc1 , give the reported inhibition.
33.6

What value of measured inhibition is listed for CCCC(O)(CCC)C(=O)NN(C(=O)CCl)c1cccc(C)c1 ?
23.7

# query: inhibition of entry Cc1ccc(C(c2cc(Cl)c3cccnc3c2O)N2CCN(C)CC2)cc1 (configuration not stated)
32.5

Would you mind telling me what inhibition value was observed for CCC(=O)NC(c1cccs1)c1ccc2cccnc2c1O (configuration not stated) ?
23.3

// lookup inhibition for O=C(NN=C(c1ccccc1)c1ccccn1)c1ccccc1
27.4

I would be grateful if you could share the reported inhibition for O=C(C#Cc1ccccc1)Nc1cccc(F)c1 .
30.5

Which inhibition value is on record for CC[C@]1(C(=O)OC)[C@H]2C(=O)N(Cc3ccccc3)C(=O)[C@H]2[C@H]2CN=C(SCc3ccccc3)N21 ?
35.8

Can you look up the measured inhibition of O=C1c2cccc3c([N+](=O)[O-])ccc(c23)C(=O)N1c1nccs1 for me?
27

Which inhibition is listed for CCOc1ccc(-n2c(C)c(C(C)=O)c3cc(O)ccc32)cc1 ?
31.2

Consider the molecule shown here: CN(C)CCN(C(=O)/C=C/c1cccs1)c1nc2c(F)cc(F)cc2s1 What is its recorded inhibition?
28.9

Reported inhibition for COc1cc(OC)c2cc(C(=O)N/N=C/c3cccc(OC)c3O)[nH]c2c1 : what is it?
33.8

Look up inhibition: COc1ccc(Nc2ncnc3ccc(Br)cc23)cc1OC
30.5

Query: inhibition; subject: O=C(Nc1ccc(N2CCOCC2)cc1)c1cnsn1
32.1

Endpoint output: inhibition of CC1=NNC(=O)/C1=C\c1cn(-c2ccccc2)nc1-c1cccs1 . Value?
25.7

# input molecule: CC(=O)Nc1nc(C)c(-c2csc(Nc3ccc(S(N)(=O)=O)cc3)n2)s1 ; wanted: its inhibition
31.7
